- Test system: enterovirus D68
- method.description: Antiviral activity against Enterovirus D68 US/KY/14-18953 infected in human RD cells assessed as inhibition of virus-induced cytopathic effect incubated for 5 mins under shaking condition and measured after 3 days by neutral red dye-based photometric method
- Assay type: functional, organism-based
- condition.notes: Enterovirus D, US/KY/14-18953, RD
recorded.endpoint: pEC50
Lab note — pEC50 values are minus log10 of concentrations in M.

[[record]]
compound = "CN(C)CCNC(=O)c1cc(-c2ccccc2)nc2ccccc12"
val = 6.40

[[record]]
compound = "CC(C)Oc1cc(C(=O)NCCN2CCCC2)c2ccccc2n1"
val = 5.77

[[record]]
compound = "Cc1ccc2c(c1)c1c3n2CCNC3CCC1 (configuration not stated)"
val = 5.08

[[record]]
compound = "CCN(CC)CCNC(=O)c1cc(-c2ccccc2)nc2ccc(Cl)cc12"
val = 5.72

[[record]]
compound = "CCN(CC)CCNC(=O)c1cc(-c2ccccc2)nc2ccccc12"
val = 6.10


Inquiry: Report measured pEC50; entry is CC(C)Oc1cc(C(=O)NCCCN(C)C)c2ccccc2n1
Reply text: 4.94

Inquiry: Tell me measured pEC50 for CCN(CC)CCCNC(=O)c1cc(-c2ccccc2)nc2ccccc12 please.
Reply text: 5.02

Inquiry: Please give measured pEC50 of the following entry: CCC(C)Oc1cc(C(=O)NCCN(CC)CC)c2ccccc2n1 (configuration not stated)
Reply text: 5.55

Inquiry: Determine from records and report pEC50 for CCN(CC)CCNC(=O)c1cc(-c2ccccc2)nc2ccc(OC)cc12
Reply text: 4.91

Inquiry: Determine from records and report pEC50 for NNC(=O)c1cc(-c2cccs2)nc2ccccc12
Reply text: 4.92

Inquiry: Item O=C(NCCCn1ccnc1)c1cc(-c2cccs2)nc2ccccc12 : provide pEC50
Reply text: 5.05

Inquiry: Identify measured pEC50 corresponding to CC(C)Oc1cc(C(=O)NCCN2CCN(C)CC2)c2ccccc2n1
Reply text: 4.59

Inquiry: Supply recorded pEC50 for N=C(N)N here.
Reply text: 3.66

Inquiry: Provide measured pEC50 value, entry: CCN(CC)CCNC(=O)c1cc(-c2ccccc2OC)nc2ccccc12
Reply text: 4.86

Inquiry: For the compound CCN(CC)CCNC(=O)c1cc(-c2ccncc2)nc2ccccc12 , report pEC50.
Reply text: 5.18

====

- method.description: Selectivity index, ratio of CC50 for human RD cells to EC50 for Enterovirus D68 US/KY/14-18953 infected in human RD cells
- Format: toxicity, cell-based
- condition.notes: read-out: Ratio CC50/EC50
Let's look at some compounds and their measured selectivity ratio.
Just the number, please, no unit after it.

Inquiry: Please report the measured selectivity ratio for CCN(CC)CCNC(=O)c1cc(-c2ccccc2OC)nc2ccccc12
Reply text: 5.5

Inquiry: Complete the entry with selectivity ratio for CCCOc1cc(C(=O)NCCN(CC)CC)c2ccccc2n1
Reply text: 9.5

Inquiry: Note selectivity ratio for the compound shown: CCN(CC)CCNC(=O)c1cc(-c2ccc(Cl)s2)nc2ccccc12
Reply text: 7.6

Inquiry: Return the recorded selectivity ratio value; entry: CCN(CC)CCNC(=O)c1cc(-c2ccc3c(c2)CCO3)nc2ccccc12
Reply text: 18.4

Inquiry: Please supply the value of reported selectivity ratio for the item CCN(CC)CCNC(=O)c1cc(-c2ccccc2)nc2ccc(Cl)cc12
Reply text: 7.1

Inquiry: Indicate its recorded selectivity ratio; the compound in question is CCN(CC)CCNC(=O)c1cc(-c2ccccc2)nc2ccc(F)cc12
Reply text: 19.2
